# measured.on: PAI-1 (Homo sapiens, UniProt P05121)
# Sequence (P05121 24-402): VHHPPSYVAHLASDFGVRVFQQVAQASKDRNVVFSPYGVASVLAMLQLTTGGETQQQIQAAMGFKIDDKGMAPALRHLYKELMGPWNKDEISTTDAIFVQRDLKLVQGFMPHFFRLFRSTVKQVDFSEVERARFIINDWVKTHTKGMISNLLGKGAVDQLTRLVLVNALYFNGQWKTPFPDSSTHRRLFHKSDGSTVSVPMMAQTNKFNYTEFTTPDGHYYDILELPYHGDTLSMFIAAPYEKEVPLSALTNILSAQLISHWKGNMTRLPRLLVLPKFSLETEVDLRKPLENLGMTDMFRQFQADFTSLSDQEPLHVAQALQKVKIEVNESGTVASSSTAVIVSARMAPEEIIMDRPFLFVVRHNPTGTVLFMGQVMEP
# method.description: biochemical
# assay.setup: 25 μM; read-out: Degree of inhibition in PAI chromogenic substrate assay
Counter-ions that a name gives are not always drawn.
Lab note: class by inhibition at 25 µM, see lower band = under 3%, central band = from 3% up to 40%, upper band = 40% and over

See these solved cases before continuing.
>  <compound>
CCCCCCOc1ccc(/C=c2\[nH]c(=O)/c(=C/c3ccc(OC)cc3)[nH]c2=O)cc1

>  <classification>
central band

$$$$
>  <compound>
CN(C)Cc1ccc(/C=c2\[nH]c(=O)/c(=C/c3ccccc3)[nH]c2=O)cc1

>  <classification>
central band

$$$$
>  <compound>
CCCCCCC(=O)Oc1ccc(/C=c2\[nH]c(=O)/c(=C/c3ccc(OC)cc3)[nH]c2=O)cc1

>  <classification>
central band

$$$$
>  <compound>
COc1ccc(/C=c2\[nH]c(=O)/c(=C/c3ccc(OCCN(C)C)cc3)[nH]c2=O)cc1

>  <classification>
central band

$$$$
>  <compound>
COc1ccc(/C=c2\[nH]c(=O)/c(=C/c3ccc(OC(=O)CC(C)(C)C)cc3)[nH]c2=O)cc1

>  <classification>
lower band

$$$$
>  <compound>
CCCCOc1ccc(/C=c2\[nH]c(=O)/c(=C/c3ccc(OCCCN(C)C)cc3)[nH]c2=O)cc1

>  <classification>
upper band

$$$$
>  <compound>
CN(C)CCOc1cccc(/C=c2\[nH]c(=O)/c(=C/c3cccc(OCCN(C)C)c3)[nH]c2=O)c1

>  <classification>
lower band

$$$$
>  <compound>
CN(C)CCOc1ccc(/C=c2\[nH]c(=O)/c(=C/c3ccc(OCCN(C)C)cc3)[nH]c2=O)cc1 [Compound 1962, dihydrochloride]

>  <classification>
lower band

$$$$

Kindly state the category for this compound: CN(C)CCOc1ccc(/C=c2\[nH]c(=O)/c(=C/c3ccc(F)cc3F)[nH]c2=O)cc1
upper band

Kindly state the category for this compound: CN(C)CCCOc1ccc(/C=c2\[nH]c(=O)/c(=C/c3ccccc3)[nH]c2=O)cc1
upper band

Kindly state the category for this compound: CC(C)(C)CC(=O)Oc1ccc(/C=c2\[nH]c(=O)/c(=C/c3ccccc3)[nH]c2=O)cc1
central band

====

# measured.on: PAI-1 (Homo sapiens, UniProt P05121)
# method.description: biochemical
# assay.setup: IC50, PAI chromogenic substrate assay
endpoint.label: IC50 (µM)
Please reply with the bare figure in µM and do not write the unit itself.

>  <molecule>
CN(C)CCCOc1ccc(/C=c2\[nH]c(=O)/c(=C/c3cc([N+](=O)[O-])cc([N+](=O)[O-])c3)[nH]c2=O)cc1 [Compound 5381]

>  <IC50, µM>
15

$$$$

What IC50 appears in the records for this molecule with PAI-1 (Homo sapiens, UniProt P05121)? CN(C)CCCOc1ccc(/C=c2\[nH]c(=O)/c(=C/c3cc([N+](=O)[O-])cc([N+](=O)[O-])c3)[nH]c2=O)cc1 [Compound 5378]
20

====

# measured.on: PAI-1 (Homo sapiens)
# method.description: biochemical
# assay.setup: 12.5 μM
endpoint.label: Degree of inhibition in PAI chromogenic substrate assay (%)
Please reply with the bare figure in % and do not write the unit itself.

Degree of inhibition in PAI chromogenic substrate assay for CN(C)CCOc1ccc(/C=c2\[nH]c(=O)/c(=C/c3ccccc3)[nH]c2=O)c(Cl)c1.Cl ?
63

Degree of inhibition in PAI chromogenic substrate assay for CN(C)CCOc1ccccc1/C=c1\[nH]c(=O)/c(=C/c2ccccc2)[nH]c1=O ?
1

Degree of inhibition in PAI chromogenic substrate assay for CN(C)CCOc1ccc(/C=c2\[nH]c(=O)/c(=C/c3ccccc3)[nH]c2=O)cc1 [Compound 1908] ?
29

Degree of inhibition in PAI chromogenic substrate assay for CN(C)CCOc1ccc(/C=c2\[nH]c(=O)/c(=C/c3ccccc3)[nH]c2=O)cc1OCCN(C)C [Compound 1949] ?
1

Degree of inhibition in PAI chromogenic substrate assay for CN(C)CCOc1ccc(/C=c2\[nH]c(=O)/c(=C/c3ccccc3)[nH]c2=O)cc1 [Compound 1924] ?
7

Degree of inhibition in PAI chromogenic substrate assay for CN(C)CCOc1ccc(/C=c2\[nH]c(=O)/c(=C/c3ccccc3)[nH]c2=O)c(OCCN(C)C)c1 ?
0

Degree of inhibition in PAI chromogenic substrate assay for CN(C)CCOc1ccc(/C=c2\[nH]c(=O)/c(=C/c3c(Cl)cccc3Cl)[nH]c2=O)cc1 [Compound 1980] ?
13
